# credit: the supplement of paper PMC10567573

B1: SLC35F2 (parent)
chain: SFMPLVIKVTSATSVNLGILTADL

variants of: B1; experiment: protein stability index of a GFP-peptide fusion (GPS, HEK-293T) (PSI 1-6); higher = more stable; conditions: c terminus: a fixed tail appended;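 note: lentivirally expressed fusions sorted by FACS into six bins by GFP to DsRed ratio, PSI derived from sequencing read proportions per bin multiplied by bin number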
Lab note: anything with protein stability index at or over 3 counts as 1.0; the rest go in 0.0.

SEQUENCE_STRING: SFMPLVIKVTSAFSVNLGILTADL [T13F]
ASSIGNED_CATEGORY: 0.0
--
SEQUENCE_STRING: SFMPLVIKVTSATSVNLGILTAEL [D23E]
ASSIGNED_CATEGORY: 1.0
--
SEQUENCE_STRING: SFMPLVIKVTSATSVNLHILTADL [G18H]
ASSIGNED_CATEGORY: 1.0
--
SEQUENCE_STRING: SFMPLVIKVTSPTSVNLGILTADL [A12P]
ASSIGNED_CATEGORY: 0.0
--
SEQUENCE_STRING: SFMPLFIKVTSATSVNLGILTADL [V6F]
ASSIGNED_CATEGORY: 0.0
--
SEQUENCE_STRING: SFMPTVIKVTSATSVNLGILTADL [L5T]
ASSIGNED_CATEGORY: 1.0
--
SEQUENCE_STRING: SFMPLVIKVTSATMVNLGILTADL [S14M]
ASSIGNED_CATEGORY: 0.0
--
SEQUENCE_STRING: SFMPLVIKVTSASSVNLGILTADL [T13S]
ASSIGNED_CATEGORY: 0.0
--
SEQUENCE_STRING: SFMPLVIKVTSATSVNLGIITADL [L20I]
ASSIGNED_CATEGORY: 1.0
--
SEQUENCE_STRING: SFMPLVIKVTSATSVNYGILTADL [L17Y]
ASSIGNED_CATEGORY: 0.0
--
SEQUENCE_STRING: SFMPLVIKVTSATSVNLGILTASL [D23S]
ASSIGNED_CATEGORY: 0.0
--
SEQUENCE_STRING: SFYPLVIKVTSATSVNLGILTADL [M3Y]
ASSIGNED_CATEGORY: 0.0
--
SEQUENCE_STRING: SFMPLVIKVTSATSVNLGILHADL [T21H]
ASSIGNED_CATEGORY: 1.0
--
SEQUENCE_STRING: NFMPLVIKVTSATSVNLGILTADL [S1N]
ASSIGNED_CATEGORY: 1.0
--
SEQUENCE_STRING: SFMPLVIKVTSITSVNLGILTADL [A12I]
ASSIGNED_CATEGORY: 0.0
